These data points were gathered from paper PMC9482650.

# ASSAY_TARGET: MAGI2_2, Q86UL8
# Sequence (Q86UL8 410-522): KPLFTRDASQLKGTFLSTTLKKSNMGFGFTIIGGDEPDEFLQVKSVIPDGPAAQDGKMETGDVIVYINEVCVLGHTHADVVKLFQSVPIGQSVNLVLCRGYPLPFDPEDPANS
# ASSAY_REMARKS: holdup assay
# Set-up: key: below the threshold = too weak to quantify, mostly under pKd 3.1 to 4
# TEST_CONTEXT: plain residues with an end cap or a label only (N-terminal biotin on a linker: ado-ado)
PROPERTY: pKd

Consider the reported pKd for these binders:
Data request, read-out pKd, for THHRKIHTRV [ZNF599, Q96NL3]
5.78

Data request, read-out pKd, for GSQSQVETEA [FKBP4, Q02790]
below the threshold

Data request, read-out pKd, for LVEEEEPMNL [HDAC7, Q8WUI4]
below the threshold

Data request, read-out pKd, for SKQFDKNAYV [CLDN10, P78369]
below the threshold

Data request, read-out pKd, for QQGLLPHSSC [TYRO3, Q06418]
below the threshold

Data request, read-out pKd, for HDDYFYHDEL [RCN2, Q14257]
below the threshold

Data request, read-out pKd, for QLKSGRDSTV [TMEM178A, Q8NBL3]
4

Data request, read-out pKd, for QKASRNESTF [POLR1D, P0DPB6]
below the threshold

Data request, read-out pKd, for ATKDKKITTV [EXOC4, Q96A65]
5.52

Data request, read-out pKd, for SQPLLVHDDV [KIT, P10721]
below the threshold

Next:
Data request, read-out pKd, for KPDKQEEFYA [SDC3, O75056]
below the threshold

Data request, read-out pKd, for PKSNSSKEYV [CLDN7, O95471]
below the threshold

Data request, read-out pKd, for TKDKVQETQI [LRRC4, Q9HBW1]
4.25

Data request, read-out pKd, for EPAKETTTNV [SLC2A3, P11169]
3.51

Data request, read-out pKd, for SAGADSETHC [SLCO1B1, Q9Y6L6]
below the threshold

Data request, read-out pKd, for FHSIKQSTAV [CRHR1, P34998]
5.03
